Target: CDK2 (Homo sapiens, UniProt P24941)
Construct: host or cells: HEK293
Assay: CDK2 HIBIT PQ (protein quantification), degradation
Format: cell-based
Details: PQ = Protein Quantification
Binned DC50; ranges: low bracket (below 0.7 nM), middle bracket (0.7 nM to below 8 nM), high bracket (8 nM or more)

Compound	Class Assignment
CC(C)Oc1c(-c2cn[nH]c2)ncn2nc(Nc3ccc(S(=O)(=O)c4cccc(CN5CCN(c6ccc7c(N8CCC(=O)NC8=O)nn(C)c7c6)CC5C(C)C)c4)cc3F)nc12 (racemic) [Compound 42]	high bracket
CC(C)Oc1c(-c2cn[nH]c2)ncn2nc(Nc3ccc(S(=O)(=O)N4CCC[C@H](CN5CC[C@H](c6ccc7c(N8CCC(=O)NC8=O)nn(C)c7c6)CC5(C)C)C4)cc3F)nc12 (relative stereo) [Compound 97]	low bracket
CC(C)Oc1c(-c2cn[nH]c2)ncn2nc(Nc3ccc(S(=O)(=O)N4CCCC(CN5CC(c6ccc7c(N8CCC(=O)NC8=O)nn(C)c7c6)C5)C4)cc3F)nc12 (racemic) [Compound 86]	middle bracket

The entry to classify is CC(C)Oc1c(-c2cn[nH]c2)ncn2nc(Nc3ccc(S(=O)(=O)c4cccc(CN5CCN(c6ccc7c(N8CCC(=O)NC8=O)nn(C)c7c6)CC5C(C)C)c4)cc3F)nc12 (single isomer, unassigned) [Compound 106] ; which class holds it?
high bracket

Same thing, different compound: CC(C)Oc1c(-c2cn[nH]c2)ncn2nc(Nc3ccc(S(=O)(=O)N(C)CCCN4C5CC4CN(c4ccc6c(c4)n(C)c(=O)n6C4CCC(=O)NC4=O)C5)cc3F)nc12 (stereo not shown) [Compound 70]
low bracket

Repeat with CC(C)Oc1c(-c2cn[nH]c2)ncn2nc(Nc3ccc(S(=O)(=O)c4cccc(CN5CCN(c6ccc7c(N8CCC(=O)NC8=O)nn(C)c7c6)CC5C)c4)cc3F)nc12 (racemic) [Compound 39]
middle bracket

// query: CC(C)Oc1c(-c2cn[nH]c2)ncn2nc(Nc3ccc(S(=O)(=O)N4CCC[C@H](CN5CC[C@H](c6ccc7c(N8CCC(=O)NC8=O)nn(C)c7c6)CC5(C)C)C4)cc3F)nc12 (single isomer, unassigned) [Compound 104]
middle bracket

Note, next up: CC(C)Oc1c(-c2cn[nH]c2)ncn2nc(Nc3ccc(S(=O)(=O)N(C)CCCN4CCN(c5ccc6c(c5)n(C)c(=O)n6C5CCC(=O)NC5=O)CC4(C)C)cc3F)nc12 (racemic) [Compound 67]
low bracket

Now consider CC(C)Oc1c(-c2cn[nH]c2)ncn2nc(Nc3ccc(S(=O)(=O)c4cccc(CC5CC(c6ccc7c(c6)CN(C6CCC(=O)NC6=O)C7=O)C5)c4)cc3F)nc12 (stereo not shown) [Compound 77] .
high bracket
